Reference source: paper PMC7790557

Kindly state IC50 for each of the entries shown.
- Tested on: MH-22A (mouse hepatoma)
- Experimental protocol: Cytotoxicity, MTT assay, MH-22A
- Format: cell-based
- Run parameters: Mus musculus; Table 2; 72 h exposure; read-out: MH-22A IC50 (MTT)

Field IC50 (entry COC(=O)C1=C(C[n+]2ccccc2)N(Cc2ccccc2)C(=O)CC1.[O-][Cl+3]([O-])([O-])[O-] [compound 29] ) reads > 100 µg/mL

What the record says about CCCCCCCCCCCCOC(=O)C1=C(C[N+](C)(C)CCCCCCCCCCCC)NC(=O)CC1c1ccccc1 (stereo not drawn) [compound 34] : IC50 is < 1 µg/mL

IC50 measured on COC(=O)C1=C(C[n+]2ccccc2)NC(=O)CC1c1ccccc1OC(F)F.[Br-] (stereo not drawn) [compound 28] = > 100 µg/mL

----------
- Test system: HT-1080 (human lung fibrosarcoma)
- Experimental protocol: Cytotoxicity, MTT assay, HT-1080
- Format: cell-based
- Run parameters: Homo sapiens, HT-1080; Table 1; 72 h exposure; read-out: HT-1080 IC50 (MTT)
- From the text: Reduction takes place only when mitochondrial reductase enzymes are active, and therefore, conversion is directly related to the number of viable cells which can be quantified by the absorbance of the solution (between λ = 500 and 600 nm) using a spectrophotometer.
Can you tell me IC50 for the items I'm about to list?

The molecule listed as CCOC(=O)C1=C(C[n+]2ccccc2)NC(C[n+]2ccccc2)=C(C(=O)OCC)C1C(=O)OC.[Br-].[Br-] shows IC50 equal to > 100 µg/mL

The reported value for CCOC(=O)C1=C(C[n+]2ccccc2)NC(C[n+]2ccccc2)=C(C(=O)OCC)C1c1ccccc1C(F)(F)F.[Br-].[Br-] in terms of IC50 is > 100 µg/mL

In plain terms, CCOC(=O)C1=C(C[n+]2ccccc2)NC(C[n+]2ccccc2)=C(C(=O)OCC)C1c1ccccc1.[Br-].[Br-] has a documented IC50 of > 100 µg/mL
